Data provenance: ChEMBL document CHEMBL1201862

This document collects AC50 values reported for Cytochrome P450 1A2 (Homo sapiens, UniProt P05177).

Solved cases below.
Recorded AC50 for Cc1ccc(NC(=O)c2sc3ncnc(O)c3c2C)c(C)c1 with Cytochrome P450 1A2 (Homo sapiens, UniProt P05177), please?
14.1 µM (inconclusive)

Would you kindly repeat that for CC(=O)OCC(=O)[C@@]1(OC(C)=O)[C@H](C)C[C@H]2[C@@H]3C[C@H](F)C4=CC(=O)C=C[C@@]4(C)[C@]3(F)[C@H](O)C[C@@]21C ?
12.6 µM (inconclusive)

Quick one: O=C1N/C(=C\c2ccc(N3CCOCC3)c(F)c2)C(=O)N1Cc1ccccc1
2 µM (inconclusive)

Ok, now COc1cc(CNCc2cccs2)ccc1OCC(N)=O
39.8 µM (inconclusive)

Now for a further molecule.
GET /values?readout=AC50&system=Cytochrome P450 1A2 (Homo sapiens, UniProt P05177)&item= CCn1c(COc2ccccc2)nnc1SCC(=O)Nc1cc(OC)ccc1OC;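 also: PubChem cytochrome P450 panel assay, CYP1A2 panel member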
25.1 µM (inconclusive)
